- experimental-target: hNET (Homo sapiens)
- protocol-text: biochemical
- Format: binding
- assay-conditions: read-out: Inhibition of [125I]RTI-55 binding Ki ± sem, hNET; HEK-hNET membranes
measured-metric: pKi
One number for each entry, as −log10 of the molar value.

For the 3 compounds below, give their pKi values.
1. CCNC(C)C(=O)c1ccc(Cl)cc1 (stereo not drawn) [4-CEC, 4-Cl-ethcathinone]
2. CNC(C)Cc1ccc2ccoc2c1 (stereo not drawn) [6-MAPB, N,α-dimethyl-6-benzofuranethanamine]
3. CCCNC(C)C(=O)c1ccc2c(c1)OCO2 (stereo not drawn) [PRONE, 3,4-methylenedioxy-N-propylcathinone]

[4.79, 5.83, 4.65]

---

- experimental-target: hNET (Homo sapiens)
- protocol-text: cell-based
- assay-conditions: read-out: Inhibition of [3H]neurotransmitter uptake IC50 ± sem, hNET [3H]NE
measured-metric: IC50 (nM)
Numbers only, in nM.

CCCC(C(=O)c1ccc(F)cc1)N1CCCC1 (centres unmarked) = 118

Could you now consider this next compound?
// lookup IC50 | system=hNET (Homo sapiens) | key= CNC(C)Cc1ccc2c(c1)OCO2 (centres unmarked) [MDMA, reference compound]
630

---

- experimental-target: UniProt Q01959
- protocol-text: Inhibition of [3H]DA uptake by HEK-hDAT cells
pIC50: −log10 of the molar value.
Short version: pIC50 at least 6 is 1 (yes), less is 0 (no).

Solved entries (count: 3):
CCCCCCC(C(=O)c1ccccc1)N1CCCC1 (stereo not drawn) [PV9, 1-phenyl-2-(pyrrolidin-1-yl)octan-1-one] = 1 (yes)
CCCC(Cc1ccccc1)N1CCCC1 (stereo not drawn) [Prolintane, 1-[1-(phenylmethyl)butyl]-pyrrolidine] = 1 (yes)
CN[C@@H](C)Cc1ccccc1 [METH, methamphetamine, reference compound] = 1 (yes)

Decide: pIC50 of CCCCC(C(=O)c1ccc(C)cc1)N1CCCC1 (stereo not drawn) [4-Me-α-PHP, 4’-methyl-α–pyrrolidinohexanophenone] >= 6?
1 (yes)

Exam item: decide whether the reported pIC50 for CCCCC(C(=O)c1ccc(F)cc1)N1CCCC1 (stereo not drawn) [4-F-α-PHP, 4’-fluoro-α–pyrrolidinohexanophenone] is at least 6.
1 (yes)

Is it the case that CCCCC(C(=O)c1ccc2c(c1)OCO2)N1CCCC1 (stereo not drawn) [3,4-MDPHP] has pIC50 reaching or exceeding 6?
1 (yes)

State whether the measured pIC50 reaches 6, counting equality as reaching it, for CNC(COC)C(=O)c1ccc(C)cc1 (stereo not drawn) [Mexedrone]
0 (no)

Textbook exercise: given the entry CNC(C)Cc1ccc2c(c1)CCO2 (stereo not drawn) [5-MAPDB] , state whether its pIC50 is greater than or equal to 6.
0 (no)

---

- experimental-target: hNET (Homo sapiens, UniProt P23975)
- Sequence (P23975 whole entry): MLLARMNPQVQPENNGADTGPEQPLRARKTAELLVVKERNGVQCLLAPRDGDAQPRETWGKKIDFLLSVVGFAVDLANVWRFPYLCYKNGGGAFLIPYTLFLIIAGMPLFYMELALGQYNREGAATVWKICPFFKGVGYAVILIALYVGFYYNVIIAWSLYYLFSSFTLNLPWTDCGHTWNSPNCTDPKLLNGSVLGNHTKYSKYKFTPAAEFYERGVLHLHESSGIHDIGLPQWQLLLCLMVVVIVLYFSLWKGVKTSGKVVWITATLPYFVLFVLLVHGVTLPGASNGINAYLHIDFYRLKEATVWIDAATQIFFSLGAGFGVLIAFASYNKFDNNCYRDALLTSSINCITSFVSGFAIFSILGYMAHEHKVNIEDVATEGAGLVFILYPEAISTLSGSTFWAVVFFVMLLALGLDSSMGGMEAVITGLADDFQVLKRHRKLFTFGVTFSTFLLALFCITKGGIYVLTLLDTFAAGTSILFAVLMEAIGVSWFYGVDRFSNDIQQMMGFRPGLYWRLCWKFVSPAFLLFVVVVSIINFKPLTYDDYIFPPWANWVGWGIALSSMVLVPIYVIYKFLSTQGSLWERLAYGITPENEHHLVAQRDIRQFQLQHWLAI
- protocol-text: Drug-induced release of preloaded [3H]NE from HEK-hNET cells
- Format: cell-based
- assay-conditions: relative to maximal AUC induced by METH (0.3 or 1 μM)
Field: % maximum release ± sem, hNET [3H]NE. Provide a value for each of the compounds that follow.
Give bare numbers, in %.

CNC(C)Cc1cc2ccccc2o1 (stereo not drawn) = 63

Each compound below has a recorded value; state its % maximum release ± sem, hNET [3H]NE.
1. CNC(C)Cc1ccc2ccoc2c1 (stereo not drawn)
2. CNC(C)Cc1ccc2occc2c1 (stereo not drawn)
3. CNC(C)C(=O)c1ccccc1 (stereo not drawn) [MCAT, methcathinone, reference compound]
4. CC(N)Cc1ccc2ccoc2c1 (stereo not drawn)
5. CN[C@@H](C)Cc1ccccc1 [METH, methamphetamine, reference compound]
6. CCCC(C(=O)c1ccc(Cl)cc1)N1CCCC1 (stereo not drawn)

1: 60; 2: 89.0; 3: 75; 4: 69; 5: 107.5; 6: 9.4

# lookup: % maximum release ± sem, hNET [3H]NE of CNC(COC)C(=O)c1ccc(C)cc1 (stereo not drawn)
12.5

---

- experimental-target: hNET (Homo sapiens)
- protocol-text: cell-based
- assay-conditions: read-out: Inhibition of [3H]neurotransmitter uptake IC50 ± sem, hNET [3H]NE; HEK-hNET cells
Provide the reported IC50 of each item.
Numbers only, in nM.

CNC(C)C(=O)c1cccc(C)c1 (stereo not shown) = 84
CNC(C)Cc1cc2ccccc2o1 (stereo not shown) = 39.3

Respectfully, I request IC50 for each entry included below.
1. CCCNC(C)C(=O)c1ccc2c(c1)OCO2 (stereo not shown)
2. CCCNC(CCC)C(=O)c1ccccc1 (stereo not shown)
3. CNC(C)C(=O)c1ccccc1 (stereo not shown) [MCAT, methcathinone, reference compound]
4. CNC(C)Cc1ccc2ccoc2c1 (stereo not shown)
5. CCCC(NC)C(=O)c1ccc(C)cc1 (stereo not shown)

1. 6040
2. 306
3. 45.2
4. 33.1
5. 307

---

- experimental-target: hNET (Homo sapiens)
- protocol-text: Drug-induced release of preloaded [3H]NE from HEK-hNET cells
- Format: cell-based
measured-metric: pEC50
Give bare numbers, as −log10 of the molar value.

CN[C@@H](C)Cc1ccccc1 [METH, methamphetamine, reference compound] = 6.59

Let's switch to this compound now.
Can you share its pEC50? I mean this compound: CNC(C)Cc1ccc2c(c1)CCO2 (stereo not drawn) [5-MAPDB]
6.08

---

Assignment: determine reported Ki for the given compounds.
- experimental-target: hDAT (Homo sapiens, UniProt Q01959)
- Sequence (Q01959 whole entry): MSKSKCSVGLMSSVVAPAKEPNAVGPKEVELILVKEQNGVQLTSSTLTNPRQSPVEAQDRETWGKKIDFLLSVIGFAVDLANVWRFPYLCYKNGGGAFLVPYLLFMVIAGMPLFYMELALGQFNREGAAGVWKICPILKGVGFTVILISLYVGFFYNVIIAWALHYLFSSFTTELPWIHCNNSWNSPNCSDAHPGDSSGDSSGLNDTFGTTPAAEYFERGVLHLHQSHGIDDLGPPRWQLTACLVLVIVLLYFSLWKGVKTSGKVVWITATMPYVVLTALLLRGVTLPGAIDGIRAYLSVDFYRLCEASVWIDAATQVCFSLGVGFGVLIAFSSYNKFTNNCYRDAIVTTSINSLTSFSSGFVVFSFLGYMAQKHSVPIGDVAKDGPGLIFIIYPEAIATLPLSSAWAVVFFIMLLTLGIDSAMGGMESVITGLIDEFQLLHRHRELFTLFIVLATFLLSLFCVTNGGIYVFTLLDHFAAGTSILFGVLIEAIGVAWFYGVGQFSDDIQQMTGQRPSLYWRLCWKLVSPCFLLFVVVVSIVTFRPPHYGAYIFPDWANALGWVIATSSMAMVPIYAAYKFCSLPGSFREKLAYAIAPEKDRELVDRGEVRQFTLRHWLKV
- protocol-text: Inhibition of [125I]RTI-55 binding, HEK-hDAT membranes
- assay-conditions: read-out: Inhibition of [125I]RTI-55 binding Ki ± sem, hDAT; HEK-hDAT membranes
One number for each entry, in µM.

CCCC(NC)C(=O)c1ccc(Cl)cc1 (centres unmarked) [4-CPD, 4-chloro pentedrone] = 1.62

I need Ki for every entry listed below, if you could help.
1. CCCC(C(=O)c1ccc2c(c1)CCCC2)N1CCCC1 (centres unmarked) [TH-PVP]
2. CCCNC(C)C(=O)c1ccc2c(c1)OCO2 (centres unmarked) [PRONE, 3,4-methylenedioxy-N-propylcathinone]
3. CCC(C(=O)c1ccc2c(c1)OCO2)N(C)C (centres unmarked) [Dibutylone, bk-DMBDB]
4. CNC(C)Cc1ccc2occc2c1 (stereo not drawn) [5-MAPB, N,α-dimethyl-5-benzofuranethanamine]

1: 3.09; 2: 6.8; 3: 0.581; 4: 2.66

---

- experimental-target: hNET (Homo sapiens, UniProt P23975)
- protocol-text: biochemical
- Format: binding
- assay-conditions: read-out: Inhibition of [125I]RTI-55 binding Ki ± sem, hNET; HEK-hNET membranes
measured-metric: Ki (µM)
One number for each entry, in µM.

CCC(C(=O)c1ccc2c(c1)OCO2)N(C)C (stereo not drawn) [Dibutylone, bk-DMBDB] = 8.4
CCCC(C(=O)c1ccc2c(c1)OCO2)N(C)C (stereo not drawn) [bk-DMBDP, N,N-dimethylpentylone] = 2
CNC(C)Cc1ccc2occc2c1 (stereo not drawn) [5-MAPB, N,α-dimethyl-5-benzofuranethanamine] = 3.15
CCCC(NCC)C(=O)c1ccc(C)cc1 (stereo not drawn) [4-MEAP, 4-methyl-α-ethylaminopentiophenone] = 0.576
CCCC(NCC)C(=O)c1ccccc1 (stereo not drawn) [α-EPP, α-ethylaminopentiophenone] = 0.7
CCCNC(CCC)C(=O)c1ccccc1 (stereo not drawn) [N-propyl pentedrone, α-propylaminopentiophenone] = 3.76
CCCCC(NCC)C(=O)c1ccccc1 (stereo not drawn) [N-Et-Hexedrone, α-ethylaminohexanophenone] = 1.26
CCNC(C)Cc1ccc2ccoc2c1 (stereo not drawn) [6-EAPB, N-ethyl-α-methyl-6-benzofuranethanamine] = 0.772
CCCC(C(=O)c1ccc(Cl)cc1)N1CCCC1 (stereo not drawn) [4-Cl-α-PVP, 4’-chloro-α–pyrrolidinopentiophenone] = 0.281
CC(N)Cc1ccc2ccoc2c1 (stereo not drawn) [6-APB, α-methyl-6-benzofuranethanamine] = 2.45

Below are some compounds; for each one, tell me its Ki.
1. CCCC(NCC)C(=O)c1ccc2c(c1)OCO2 (stereo not drawn) [N-Et pentylone, N-ethyl pentylone]
2. CCCC(NC)C(=O)c1ccc(C)cc1 (stereo not drawn) [4-MPD, 4-methyl pentedrone]
3. CCCC(NC)C(=O)c1ccc(Cl)cc1 (stereo not drawn) [4-CPD, 4-chloro pentedrone]
4. CNC(C)Cc1cc2ccccc2o1 (stereo not drawn) [2-MAPB, N,α-dimethyl-2-benzofuranethanamine]

[2.38, 3.39, 4.54, 1.99]

Working through the 3 compounds below one at a time, give Ki for each.
1. CNC(C)C(=O)c1ccccc1 (stereo not drawn) [MCAT, methcathinone, reference compound]
2. CCCC(C(=O)c1ccc2c(c1)CCCC2)N1CCCC1 (stereo not drawn) [TH-PVP]
3. CNC(C)C(=O)c1cccc(C)c1 (stereo not drawn) [3-MMC, 3-methylmethcathinone]

1: 5.96; 2: 6.95; 3: 2.85

---

UniProt P31645 measurements of Ki, listed per entry.
Sequence (P31645 whole entry): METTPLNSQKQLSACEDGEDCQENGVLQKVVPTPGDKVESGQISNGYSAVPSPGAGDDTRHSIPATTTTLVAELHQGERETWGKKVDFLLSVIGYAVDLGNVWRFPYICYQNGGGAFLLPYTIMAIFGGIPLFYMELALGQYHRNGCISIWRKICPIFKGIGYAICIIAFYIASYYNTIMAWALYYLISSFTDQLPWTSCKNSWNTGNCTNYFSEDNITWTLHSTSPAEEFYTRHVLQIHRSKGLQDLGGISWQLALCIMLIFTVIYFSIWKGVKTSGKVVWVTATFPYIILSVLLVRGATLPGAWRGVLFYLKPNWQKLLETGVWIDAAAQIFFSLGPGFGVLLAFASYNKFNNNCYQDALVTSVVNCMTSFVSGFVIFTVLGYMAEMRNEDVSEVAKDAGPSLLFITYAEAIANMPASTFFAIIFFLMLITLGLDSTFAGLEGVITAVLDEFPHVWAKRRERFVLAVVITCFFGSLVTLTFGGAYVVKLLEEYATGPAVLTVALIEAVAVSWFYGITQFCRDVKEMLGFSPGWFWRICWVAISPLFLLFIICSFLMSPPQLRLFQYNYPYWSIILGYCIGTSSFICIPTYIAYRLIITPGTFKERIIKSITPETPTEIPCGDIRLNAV
One number for each entry, in µM.

// known answers, use as guide
CCCCCCC(C(=O)c1ccccc1)N1CCCC1 (stereo not shown) = 2.86
CCCCC(C(=O)c1ccc(F)cc1)N1CCCC1 (stereo not shown) = 8.01
CCCCC(C(=O)c1ccc(C)cc1)N1CCCC1 (stereo not shown) = 4.78

Next item in the queue.
Any idea what Ki was measured for CNC(C)Cc1ccc2c(c1)CCO2 (stereo not shown) ?
8.8
